Where do the numbers come from? From the OligoGym collection.

target: TPPP2; assay: pooled miR-30 sensor sort-seq; sequence = guide strand; settings: shRNA; note: reference of the scale not given here
Consider the following sequences; for each one, report its sensor-assay potency score (higher = more potent).
One number for each entry.

Example results:
SEQ STRING	MEASURED RESULT
TCTTTGAACTGTTGAAACGTGA	-0.298
TGTAACCACTCACATAGCCTGT	-0.785
TTGTCAGTCATCTCTTCCCGTC	-0.714
TTGCTGGTGTCTGTCAAACGGT	-1.11
TTCTTGGCCTTGACTTTGCTGA	-0.996
TTGTTGTTCATTTCAGTGCCAC	0.0122

Query: Please report the recorded sensor-assay potency score (higher = more potent) for TTGTTGCTTTAGTAGCGCCAGT .
Reply: -1.46
